# Substrate: [H][C@]12C[C@]([H])(OO1)[C@H](C/C=C\CCCC(=O)O)[C@H]2/C=C/[C@@H](O)CCCCC
# assay protocol: purified protein, by the assay type
# measurement conditions: pH 8.0; 25.0 °C
readout label: Km
Kindly format the answer as number then unit.

Observe how each entry below is paired with its result.
mouse Δ1–24-L-PGDS (lipocalin type prostaglandin D synthase) (Mus musculus; S81A) (protein) QGHDTVQPNFQQDKFLGRWYSAGLASNSSWFREKKAVLYMCKTVVAPSTEGGLNLTATFLRKNQCETKIMVLQPAGAPGHYTYSSPHSGSIHSVSVVEANYDEYALLFSRGTKGPGQDFRMATLYSRTQTLKDELKEKFTTFSKAQGLTEEDIVFLPQPDKCIQE    1.5 ± 0.4 µM
Δ^1–24-L-PGDS + P110A (Mus musculus; P110A) (protein) MAALRMLWMGLVLLGLLGFPQTPAQGHDTVQPNFQQDKFLGRWYSAGLASNSSWFREKKAVLYMCKTVVAPSTEGGLNLTSTFLRKNQCETKIMVLQPAGAPGHYTYSSAHSGSIHSVSVVEANYDEYALLFSRGTKGPGQDFRMATLYSRTQTLKDELKEKFTTFSKAQGLTEEDIVFLPQPDKCIQE    1.6 ± 0.5 µM
Δ^1–24-L-PGDS + S45A/S81A (Mus musculus; S45A/S81A) (protein) MAALRMLWMGLVLLGLLGFPQTPAQGHDTVQPNFQQDKFLGRWYAAGLASNSSWFREKKAVLYMCKTVVAPSTEGGLNLTATFLRKNQCETKIMVLQPAGAPGHYTYSSPHSGSIHSVSVVEANYDEYALLFSRGTKGPGQDFRMATLYSRTQTLKDELKEKFTTFSKAQGLTEEDIVFLPQPDKCIQE    1.2 ± 0.3 µM

[ask] Fill blank: measured Km of the protein mouse Δ1–24-L-PGDS (lipocalin type prostaglandin D synthase) (Mus musculus; H111A) (protein) QGHDTVQPNFQQDKFLGRWYSAGLASNSSWFREKKAVLYMCKTVVAPSTEGGLNLTSTFLRKNQCETKIMVLQPAGAPGHYTYSSPASGSIHSVSVVEANYDEYALLFSRGTKGPGQDFRMATLYSRTQTLKDELKEKFTTFSKAQGLTEEDIVFLPQPDKCIQE is ____.
[reply] 1.4 ± 0.4 µM

[ask] Which Km value is on record for Δ^1–24-L-PGDS + S45A/T67A (Mus musculus; S45A/T67A) (protein) MAALRMLWMGLVLLGLLGFPQTPAQGHDTVQPNFQQDKFLGRWYAAGLASNSSWFREKKAVLYMCKAVVAPSTEGGLNLTSTFLRKNQCETKIMVLQPAGAPGHYTYSSPHSGSIHSVSVVEANYDEYALLFSRGTKGPGQDFRMATLYSRTQTLKDELKEKFTTFSKAQGLTEEDIVFLPQPDKCIQE ?
[reply] 2.1 ± 0.6 µM

[ask] For the protein mouse Δ1–24-L-PGDS (lipocalin type prostaglandin D synthase) (Mus musculus; S45A/S81A/T67A) (protein) QGHDTVQPNFQQDKFLGRWYAAGLASNSSWFREKKAVLYMCKAVVAPSTEGGLNLTATFLRKNQCETKIMVLQPAGAPGHYTYSSPHSGSIHSVSVVEANYDEYALLFSRGTKGPGQDFRMATLYSRTQTLKDELKEKFTTFSKAQGLTEEDIVFLPQPDKCIQE , what Km is on record?
[reply] 1.2 ± 0.1 µM

[ask] What value of measured Km is listed for mouse Δ1–24-L-PGDS (lipocalin type prostaglandin D synthase) (Mus musculus; W54A) (protein) QGHDTVQPNFQQDKFLGRWYSAGLASNSSAFREKKAVLYMCKTVVAPSTEGGLNLTSTFLRKNQCETKIMVLQPAGAPGHYTYSSPHSGSIHSVSVVEANYDEYALLFSRGTKGPGQDFRMATLYSRTQTLKDELKEKFTTFSKAQGLTEEDIVFLPQPDKCIQE ?
[reply] 1.3 ± 0.5 µM

[ask] Consider the protein mouse Δ1–24-L-PGDS (lipocalin type prostaglandin D synthase) (Mus musculus; S45A) (protein) QGHDTVQPNFQQDKFLGRWYAAGLASNSSWFREKKAVLYMCKTVVAPSTEGGLNLTSTFLRKNQCETKIMVLQPAGAPGHYTYSSPHSGSIHSVSVVEANYDEYALLFSRGTKGPGQDFRMATLYSRTQTLKDELKEKFTTFSKAQGLTEEDIVFLPQPDKCIQE and give its measured Km.
[reply] 0.5 ± 0.2 µM

[ask] Dear colleague, I am looking for the recorded Km of the following protein: mouse Δ1–24-L-PGDS (lipocalin type prostaglandin D synthase) (Mus musculus; T67A) (protein) QGHDTVQPNFQQDKFLGRWYSAGLASNSSWFREKKAVLYMCKAVVAPSTEGGLNLTSTFLRKNQCETKIMVLQPAGAPGHYTYSSPHSGSIHSVSVVEANYDEYALLFSRGTKGPGQDFRMATLYSRTQTLKDELKEKFTTFSKAQGLTEEDIVFLPQPDKCIQE
[reply] 2.8 ± 0.9 µM

[ask] Entry Δ^1–24-L-PGDS + T67A/S81A (Mus musculus; S81A/T67A) (protein) MAALRMLWMGLVLLGLLGFPQTPAQGHDTVQPNFQQDKFLGRWYSAGLASNSSWFREKKAVLYMCKAVVAPSTEGGLNLTATFLRKNQCETKIMVLQPAGAPGHYTYSSPHSGSIHSVSVVEANYDEYALLFSRGTKGPGQDFRMATLYSRTQTLKDELKEKFTTFSKAQGLTEEDIVFLPQPDKCIQE : reported Km = ?
[reply] 2.1 ± 0.2 µM

[ask] Returns the measured Km for the input protein. Input: mouse Δ1–24-L-PGDS (lipocalin type prostaglandin D synthase) (Mus musculus; H116A) (protein) QGHDTVQPNFQQDKFLGRWYSAGLASNSSWFREKKAVLYMCKTVVAPSTEGGLNLTSTFLRKNQCETKIMVLQPAGAPGHYTYSSPHSGSIASVSVVEANYDEYALLFSRGTKGPGQDFRMATLYSRTQTLKDELKEKFTTFSKAQGLTEEDIVFLPQPDKCIQE
[reply] 1.4 ± 0.1 µM
